# Test system: MDA-MB-231
# assay: SRB cell viability after siRNA transfection
# Type: cell-based, human
# testContext: 40 nM siRNA, day 5 post-transfection, normalized over siCONTROL
This listing pairs substances with measured % survival.
Kindly answer with a numeric value in %, unit omitted.

Known % survival results, listed for orientation:
| substance | % survival (%) |
| --- | --- |
| siRNA #4: siRNA targeting human TTK: 5′-GAUAAGAUCAUCCGACUUU-3′ (SEQ ID NO: 6) (listed as RNA, chemistry not given here) | 0.58 |
| siRNA #1: siRNA targeting human TTK: 5′-GCAAUACCUUGGAUGAUUA-3′ (SEQ ID NO: 3) (listed as RNA, chemistry not given here) | 0.21 |
| siRNA #2: siRNA targeting human TTK: 5′-GGUAUUAACUGCCCAAGAA-3′ (SEQ ID NO: 4) (listed as RNA, chemistry not given here) | −0.09 |

--- query ---
query: Missing value: % survival, MDA-MB-231, entry siRNA #3: siRNA targeting human TTK: 5′-GCACGUGACUACUUUCAAA-3′ (SEQ ID NO: 5) (listed as RNA, chemistry not given here) . Fill in?
result: 0.23

---

The following substances are shown together with reported % survival values.
# Test system: SKBr-3
# assay: SRB cell viability after siRNA transfection
# Assay type: cell-based, human
# testContext: 40 nM siRNA, day 5 post-transfection, normalized over siCONTROL
Express it in %; write the number only.

The following substances have reported results that may help.
| substance | measuredAttribute | quantitativeResult |
| --- | --- | --- |
| siRNA #3: siRNA targeting human TTK: 5′-GCACGUGACUACUUUCAAA-3′ (SEQ ID NO: 5) (listed as RNA, chemistry not given here) | % survival | 0.49 |
| siRNA #2: siRNA targeting human TTK: 5′-GGUAUUAACUGCCCAAGAA-3′ (SEQ ID NO: 4) (listed as RNA, chemistry not given here) | % survival | 0.34 |
| siRNA #1: siRNA targeting human TTK: 5′-GCAAUACCUUGGAUGAUUA-3′ (SEQ ID NO: 3) (listed as RNA, chemistry not given here) | % survival | 0.32 |

Could you now consider this next substance?
query: Give % survival (SKBr-3) of the following substance: siRNA #4: siRNA targeting human TTK: 5′-GAUAAGAUCAUCCGACUUU-3′ (SEQ ID NO: 6) (listed as RNA, chemistry not given here)
result: 0.91

---

# Test system: T47D
# assay: SRB cell viability after siRNA transfection
# Assay type: cell-based, human
# testContext: 40 nM siRNA, day 5 post-transfection, normalized over siCONTROL
measuredAttribute: % survival (%)
Give the value, in units of %, as a plain number.

Below are worked cases with known answers.
| substance | targetDesc | measuredAttribute | quantitativeResult |
| --- | --- | --- | --- |
| siRNA #4: siRNA targeting human TTK: 5′-GAUAAGAUCAUCCGACUUU-3′ (SEQ ID NO: 6) (listed as RNA, chemistry not given here) | T47D | % survival | 1.19 |
| siRNA #1: siRNA targeting human TTK: 5′-GCAAUACCUUGGAUGAUUA-3′ (SEQ ID NO: 3) (listed as RNA, chemistry not given here) | T47D | % survival | 0.62 |
| siRNA #3: siRNA targeting human TTK: 5′-GCACGUGACUACUUUCAAA-3′ (SEQ ID NO: 5) (listed as RNA, chemistry not given here) | T47D | % survival | 0.74 |

Here is the next item to consider.
query: API: value(readout=% survival, system=T47D) for record siRNA #2: siRNA targeting human TTK: 5′-GGUAUUAACUGCCCAAGAA-3′ (SEQ ID NO: 4) (listed as RNA, chemistry not given here)
result: 0.44

---

# Tested on: CAMA-1
# assay: SRB cell viability after siRNA transfection
# Format: cell-based, human
# testContext: 40 nM siRNA, day 5 post-transfection, normalized over siCONTROL
A collection of substances and their measured % survival
Reply with just the number (in %).

| substance | % survival (%) |
| --- | --- |
| siRNA #1: siRNA targeting human TTK: 5′-GCAAUACCUUGGAUGAUUA-3′ (SEQ ID NO: 3) (listed as RNA, chemistry not given here) | 0.46 |

query: Which value of % survival has been reported for siRNA #3: siRNA targeting human TTK: 5′-GCACGUGACUACUUUCAAA-3′ (SEQ ID NO: 5) (listed as RNA, chemistry not given here) in the records?
result: 0.52

query: Which measured % survival value corresponds to siRNA #2: siRNA targeting human TTK: 5′-GGUAUUAACUGCCCAAGAA-3′ (SEQ ID NO: 4) (listed as RNA, chemistry not given here) ?
result: 0.30

query: What value of % survival has been reported for the following substance? siRNA #4: siRNA targeting human TTK: 5′-GAUAAGAUCAUCCGACUUU-3′ (SEQ ID NO: 6) (listed as RNA, chemistry not given here)
result: 0.77

---

# System: MDA-MB-330
# assay: SRB cell viability after siRNA transfection
# Assay type: cell-based, human
# testContext: 40 nM siRNA, day 5 post-transfection, normalized over siCONTROL
measuredAttribute: % survival (%)
Reply numerically in %, unit not repeated.

Some solved cases for reference:
| substance | measuredAttribute | quantitativeResult |
| --- | --- | --- |
| siRNA #3: siRNA targeting human TTK: 5′-GCACGUGACUACUUUCAAA-3′ (SEQ ID NO: 5) (listed as RNA, chemistry not given here) | % survival | 0.63 |
| siRNA #2: siRNA targeting human TTK: 5′-GGUAUUAACUGCCCAAGAA-3′ (SEQ ID NO: 4) (listed as RNA, chemistry not given here) | % survival | 0.38 |
| siRNA #1: siRNA targeting human TTK: 5′-GCAAUACCUUGGAUGAUUA-3′ (SEQ ID NO: 3) (listed as RNA, chemistry not given here) | % survival | 0.31 |

Continue with the next substance.
query: Fill in the blank: the reported % survival of siRNA #4: siRNA targeting human TTK: 5′-GAUAAGAUCAUCCGACUUU-3′ (SEQ ID NO: 6) (listed as RNA, chemistry not given here) is ____.
result: 0.72

---

# System: BT474
# assay: SRB cell viability after siRNA transfection
# Format: cell-based, human
# testContext: 40 nM siRNA, day 5 post-transfection, normalized over siCONTROL
measuredAttribute: % survival (%)
I only need the number, in %, no unit after it.

Completed entries (count: 3):
| substance | valueUnits | quantitativeResult |
| --- | --- | --- |
| siRNA #2: siRNA targeting human TTK: 5′-GGUAUUAACUGCCCAAGAA-3′ (SEQ ID NO: 4) (listed as RNA, chemistry not given here) | % | 0.66 |
| siRNA #3: siRNA targeting human TTK: 5′-GCACGUGACUACUUUCAAA-3′ (SEQ ID NO: 5) (listed as RNA, chemistry not given here) | % | 0.83 |
| siRNA #1: siRNA targeting human TTK: 5′-GCAAUACCUUGGAUGAUUA-3′ (SEQ ID NO: 3) (listed as RNA, chemistry not given here) | % | 0.64 |

Now for the substance whose % survival we want.
query: Which % survival value belongs to siRNA #4: siRNA targeting human TTK: 5′-GAUAAGAUCAUCCGACUUU-3′ (SEQ ID NO: 6) (listed as RNA, chemistry not given here) ?
result: 0.90

---

# Test system: MDA-MB-468
# assay: SRB cell viability after siRNA transfection
# Format: cell-based, human
# testContext: 40 nM siRNA, day 5 post-transfection, normalized over siCONTROL
Each entry below carries its recorded % survival.
State the value with its unit after it.

The examples below pair each entry with its known result.
| substance | % survival |
| --- | --- |
| siRNA #1: siRNA targeting human TTK: 5′-GCAAUACCUUGGAUGAUUA-3′ (SEQ ID NO: 3) (listed as RNA, chemistry not given here) | 0.69% |
| siRNA #3: siRNA targeting human TTK: 5′-GCACGUGACUACUUUCAAA-3′ (SEQ ID NO: 5) (listed as RNA, chemistry not given here) | 0.27% |
| siRNA #2: siRNA targeting human TTK: 5′-GGUAUUAACUGCCCAAGAA-3′ (SEQ ID NO: 4) (listed as RNA, chemistry not given here) | 0.00% |

query: Name the recorded % survival for siRNA #4: siRNA targeting human TTK: 5′-GAUAAGAUCAUCCGACUUU-3′ (SEQ ID NO: 6) (listed as RNA, chemistry not given here) .
result: 1.46%
